target-system: T1, human GIP receptor (human, UniProt P48546 22-466)
T1 sequence (looked up): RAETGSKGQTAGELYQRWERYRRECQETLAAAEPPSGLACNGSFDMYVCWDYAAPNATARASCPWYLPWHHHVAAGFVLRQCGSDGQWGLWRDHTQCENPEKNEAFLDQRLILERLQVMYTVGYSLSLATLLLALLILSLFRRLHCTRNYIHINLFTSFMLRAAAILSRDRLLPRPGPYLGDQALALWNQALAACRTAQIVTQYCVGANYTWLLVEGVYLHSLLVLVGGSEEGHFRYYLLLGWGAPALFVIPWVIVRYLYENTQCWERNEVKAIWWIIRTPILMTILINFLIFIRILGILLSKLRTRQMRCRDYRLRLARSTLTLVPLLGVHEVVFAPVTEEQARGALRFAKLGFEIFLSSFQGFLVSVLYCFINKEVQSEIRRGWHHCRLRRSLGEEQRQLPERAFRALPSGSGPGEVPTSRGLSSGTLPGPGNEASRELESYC
protocol-description: cell-based or functional assay
Starred links: 1 amine or outer side, 2 acyl side, 3 side chain; linkers in the order of their positions; H or OH if unused. Non-standard residues stand in square brackets, D forms with d. Groups on a side chain read outwards from the residue. No end group written: not given here. *: point of attachment. C20 diacid = O=C(O)CCCCCCCCCCCCCCCCCCC(=O)*; C18 diacid = O=C(O)CCCCCCCCCCCCCCCCC(=O)*; γGlu = O=C(O)[C@H](CCC(=O)[*:2])N[*:1]; AEEA = NCCOCCOCC(=O)O; Aib = CC(C)(N)C(=O)O; OEG = OEG spacer
// map EC50 hGIPR 0.5% hP (CreLuc) onto a label; ranges bucket A = under 0.2 nM, bucket B = from 0.2 nM up to 0.4 nM, bucket C = 0.4 nM and over

# binder, class-assignment
records = [
    ("Y[Aib]EGTFTSDYSI[Aib]LEKQAE[Aib]AFVEWLIK([γGlu-γGlu-γGlu-γGlu-C20 diacid])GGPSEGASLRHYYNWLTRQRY-NH2 (also: TFA salt) [Compound 280]", "bucket B"),
    ("Y[Aib]EGTFTSDYSI[Aib]LEKQAQ[Aib]EFVEWLIK([γGlu-γGlu-γGlu-γGlu-C18 diacid])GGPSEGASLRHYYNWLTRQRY-NH2 (also: TFA salt) [Compound 276]", "bucket B"),
    ("Y[Aib]EGTFTSDYSI[Aib]LEKQAQ[Aib]AFVEWLIK([AEEA-γGlu-γGlu-γGlu-C18 diacid])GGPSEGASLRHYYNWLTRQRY-NH2 (also: TFA salt) [Compound 300]", "bucket A"),
    ("Y[Aib]EGTFTSDYSI[Aib]LEKQAQ[Aib]AFVQWLIK([AEEA-AEEA-γGlu-γGlu-γGlu-γGlu-C18 diacid])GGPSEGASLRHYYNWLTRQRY-NH2 (also: TFA salt) [Compound 270]", "bucket A"),
    ("Y[Aib]EGTFTSDYSI[Aib]LEKQAQ[Aib]AFVEWLIK([γGlu-γGlu-γGlu-γGlu-γGlu-γGlu-C20 diacid])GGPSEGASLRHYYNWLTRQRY-NH2 (also: TFA salt) [Compound 305]", "bucket C"),
    ("Y[Aib]EGTFTSDYSI[Aib]LEKQAQ[Aib]AFVQWLIK([OEG-OEG-γGlu-γGlu-γGlu-C18 diacid])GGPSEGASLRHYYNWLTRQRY-NH2 (also: TFA salt) [Compound 266]", "bucket A"),
    ("YXEGTFTSDYSIXLEKQAQXEFVEWLIKGGPSEGASLRHYYNWLTRQRY (Aib at 2, 13, 20; K28 side chain acylated with C20DA-gGlu-gGlu-gGlu-gGlu-gGlu-gGlu-eLys; C-terminal amide (NH2)) [Compound 275]", "bucket B"),
    ("Y[Aib]EGTFTSDYSI[Aib]LEKQAQ[Aib]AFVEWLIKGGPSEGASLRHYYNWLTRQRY-NH2 (not fully specified (residue 28); also: TFA salt) [Compound 286]", "bucket C"),
    ("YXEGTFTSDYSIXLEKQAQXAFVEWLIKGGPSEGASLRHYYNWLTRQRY (Aib at 2, 13, 20; K28 side chain acylated with C20DA-gGlu-gGlu-gGlu-gGlu-gGlu; C-terminal amide (NH2)) [Compound 289]", "bucket C"),
]
